assay_comment: Solubility studies, shake-flask method in 15 solvents
Type: physicochemical
experimental_conditions: organic solvent or mixture, thermodynamic from solid; ethanol, 20° C.; starting solid Form 1
metric_name: solubility at 24 h

Recorded solubility at 24 h for `Cc1ccc(C)c2oc(-c3nc(-c4ccc(C(=O)O)cc4)no3)cc12` , please?
< 4 mg/mL

----------
target_or_system: RARβ (Mus musculus)
Construct: expressed in transfected cells; host or cells: COS-7
Sequence (P22605 210-444 limits assumed): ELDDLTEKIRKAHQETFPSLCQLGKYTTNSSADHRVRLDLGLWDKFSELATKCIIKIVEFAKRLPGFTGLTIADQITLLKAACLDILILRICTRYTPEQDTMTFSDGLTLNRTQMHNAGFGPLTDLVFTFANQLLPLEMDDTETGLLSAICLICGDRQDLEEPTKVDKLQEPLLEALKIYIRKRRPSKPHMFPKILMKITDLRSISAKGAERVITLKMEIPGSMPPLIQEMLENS
assay_comment: Transcriptional transactivation assay, gal4-RAR fusion receptor / luciferase reporter in COS-7 cells
Type: cell-based
experimental_conditions: Table 20, mean of three or more determinations; species not given, value equals mouse value of Table 21
metric_name: EC50

Recorded EC50 for `Cc1ccc(C)c2oc(-c3nc(-c4ccc(C(=O)O)cc4)no3)cc12` , please?
< 2 nM

----------
assay_comment: Solubility studies, shake-flask method in 15 solvents
Type: physicochemical
experimental_conditions: organic solvent or mixture, thermodynamic from solid; tetrahydrofuran (THF), 20° C.; starting solid Form 1
Description: The solubility of BHBA-001 (characterised by XRPD as Form 1) was determined in 15 solvents to study the initial polymorphic behaviour. A shake-flask method was applied in which solid was added stepwise (e.g., 10 mg at a time) to a known amount of solvent (e.g., 3 mL). The solubility was confirmed visually. After the addition, the suspension/solution was held for 24 hours at 20° C. in order to check for slow dissolution or recrystallization. […] The resulting solid was analysed using XRPD.
metric_name: solubility at 24 h

Recorded solubility at 24 h for Cc1ccc(C)c2oc(-c3nc(-c4ccc(C(=O)O)cc4)no3)cc12 [BHBA-001] , please?
9 to 30 mg/mL

----------
assay_comment: Solubility studies, shake-flask method in 15 solvents
Format: physicochemical
experimental_conditions: organic solvent or mixture, thermodynamic from solid; 2-propanol, 20° C.; starting solid Form 1
Description: The solubility of BHBA-001 (characterised by XRPD as Form 1) was determined in 15 solvents to study the initial polymorphic behaviour. A shake-flask method was applied in which solid was added stepwise (e.g., 10 mg at a time) to a known amount of solvent (e.g., 3 mL). The solubility was confirmed visually. After the addition, the suspension/solution was held for 24 hours at 20° C. in order to check for slow dissolution or recrystallization. […] The resulting solid was analysed using XRPD.
metric_name: solubility at 24 h

Recorded solubility at 24 h for `Cc1ccc(C)c2oc(-c3nc(-c4ccc(C(=O)O)cc4)no3)cc12` , please?
< 3000 µg/mL

----------
assay_comment: Solubility studies, shake-flask method in 15 solvents
Format: physicochemical
experimental_conditions: organic solvent or mixture, thermodynamic from solid; dichloromethane, 20° C.; starting solid Form 1
metric_name: solubility at 24 h

Recorded solubility at 24 h for `Cc1ccc(C)c2oc(-c3nc(-c4ccc(C(=O)O)cc4)no3)cc12` , please?
< 3000 µg/mL

----------
assay_comment: Solubility studies, shake-flask method in 15 solvents
Assay type: physicochemical
experimental_conditions: organic solvent or mixture, thermodynamic from solid; acetone, at 50° C. (footnote); starting solid Form 1
metric_name: solubility

Recorded solubility for `Cc1ccc(C)c2oc(-c3nc(-c4ccc(C(=O)O)cc4)no3)cc12` , please?
< 3000 µg/mL

----------
assay_comment: Solubility studies, shake-flask method in 15 solvents
Type: physicochemical
experimental_conditions: organic solvent or mixture, thermodynamic from solid; n-heptane, 20° C.; starting solid Form 1
metric_name: solubility at 24 h

Recorded solubility at 24 h for `Cc1ccc(C)c2oc(-c3nc(-c4ccc(C(=O)O)cc4)no3)cc12` , please?
< 3000 µg/mL

----------
assay_comment: Solubility studies, shake-flask method in 15 solvents
Type: physicochemical
experimental_conditions: organic solvent or mixture, thermodynamic from solid; isopropyl acetate, 20° C.; starting solid Form 1
metric_name: solubility at 24 h (mg/mL)
Dear colleague, please return just the value in mg/mL, with no unit written.

Recorded solubility at 24 h for Cc1ccc(C)c2oc(-c3nc(-c4ccc(C(=O)O)cc4)no3)cc12 [BHBA-001] , please?
4
